# MEASURED TARGET: T1, cynomolgus IL-36α, truncated (cynomolgus macaque (Macaca fascicularis), UniProt Q9UHA7 14-158 (human entry), limits assumed)
# T1 construct: Untagged after removal of the His-SUMO tag; also called cynomolgus IL-36 alpha; cyIL-36alpha
# T1 chain: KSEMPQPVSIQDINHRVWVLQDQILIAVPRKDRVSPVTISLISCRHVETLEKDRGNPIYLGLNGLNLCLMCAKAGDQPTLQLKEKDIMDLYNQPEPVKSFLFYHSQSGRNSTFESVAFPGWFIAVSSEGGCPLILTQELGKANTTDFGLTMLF
# PROCEDURE DETAILS: SPR, Biacore, 1:1 Langmuir fit; heads of c3 and c4 printed swapped

- BINDER: "144D464A (antibody, V domains shown, Mouse monoclonal from hybridoma; mouse IgG heavy and lambda light chain; also called mouse antibody 144D464A) VH: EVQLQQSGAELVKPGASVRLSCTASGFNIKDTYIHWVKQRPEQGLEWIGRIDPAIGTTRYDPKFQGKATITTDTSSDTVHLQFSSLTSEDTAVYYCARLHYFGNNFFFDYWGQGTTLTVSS VL: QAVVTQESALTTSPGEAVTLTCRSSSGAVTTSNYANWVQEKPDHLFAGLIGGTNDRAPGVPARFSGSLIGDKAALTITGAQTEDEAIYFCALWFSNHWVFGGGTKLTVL"
  UNIT ABBREV: "s⁻¹"
  koff: 0.000338
